Where do these numbers come from? They come from patent US20100210700A1.

# Assay Overview: Clinical bioequivalence study, IV (1.5-hr infusion) vs oral TMZ, primary CNS malignancies
# Type: in vivo, human
# Condition Set: human, plasma; PO, 150 mg/m^2/day, Time 0.25 hr, n = 19; read-out: Mean Temozolomide Concentration
Parameter: concentration at 0.25 hr (ng/mL)
Please give a number only; it is taken to be in ng/mL.

Consider the compound Cn1nnc2c(C(N)=O)ncn2c1=O and give its measured concentration at 0.25 hr. 2110

* * *

# Assay Overview: Clinical bioequivalence study, IV (1.5-hr infusion) vs oral TMZ, primary CNS malignancies
# Type: in vivo, human
# Condition Set: human, plasma, iv, 150 mg/m^2/day, TMZ IV 1.5 hr infusion, 150 mg/m^2/day, n = 19; read-out: Cmax of TMZ, arithmetic Mean
Parameter: Cmax (ng/mL)
Please give a number only; it is taken to be in ng/mL.

Consider the compound Cn1nnc2c(C(N)=O)ncn2c1=O and give its measured Cmax. 7440
